Biological target: mouse GPR4 (Mus musculus (Mouse))
Sequence (Q8BUD0 whole entry): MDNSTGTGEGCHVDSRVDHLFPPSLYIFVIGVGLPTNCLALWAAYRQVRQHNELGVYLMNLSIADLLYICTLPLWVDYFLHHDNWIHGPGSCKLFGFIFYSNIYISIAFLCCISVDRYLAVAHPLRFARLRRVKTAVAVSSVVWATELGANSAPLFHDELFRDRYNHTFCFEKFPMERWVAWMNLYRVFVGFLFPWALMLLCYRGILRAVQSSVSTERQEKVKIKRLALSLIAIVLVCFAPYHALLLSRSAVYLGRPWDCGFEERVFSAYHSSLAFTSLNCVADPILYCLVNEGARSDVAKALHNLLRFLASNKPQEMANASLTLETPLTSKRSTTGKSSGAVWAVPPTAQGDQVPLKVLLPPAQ
Experiment: Mouse GPR4 cAMP assay
pIC50: −log10 of the molar value. Structures can show the parent of a compound that is named as a salt.
Endpoint Label: pIC50

- Molecule: "CCc1nn2c(C)cc(C)nc2c1Cc1ccc(OCCN2CCN[C@@H](COC)C2)cc1 [Example 27]"
  Numeric Result: 6.29

P: CCc1nn2c(C)cc(C)nc2c1Cc1ccc(/C=C/CN2CCN[C@@H](CN(C)C)C2)cc1 [Example 13, trihydrochloride]
Q: CCc1nn2c(C)cc(C)nc2c1Cc1ccc(/C=C/CN2CCC(c3nnnn3C)CC2)cc1 [Example 12, hydrochloride]
R: CCc1nn2c(C)cc(C)nc2c1Cc1ccc(/C=C/CN2CCNCC2)cc1 [Example 14]
Task field, ranking: reported pIC50, descending order. Give the labels in the order specified.
R, Q, P
(R: 6.90, Q: 6.63, P: 6.41)
